Form field: IC50 (one value per entry).
Molecular target: UniProt O60674
Experiment: Jak biochemical HTRF assay, JAK2
Settings: HTRF biochemical assay, recombinant GST-tagged catalytic domain; read-out: JAK2 IC50

Compound structure string	Assay system	IC50
N#C[C@H]1C[C@@H](N2CCC2)CC[C@@H]1n1nc(Nc2ccc(C(F)(F)F)cc2)c2c(=O)[nH]ccc21	UniProt O60674	22 nM
CC1(c2ccc(Nc3nn([C@H]4CCCC[C@@H]4C#N)c4cc[nH]c(=O)c34)cc2)COC1	UniProt O60674	0.72 nM
N#C[C@H]1CCCC[C@@H]1n1nc(Nc2ccc(S(=O)(=O)NCC3CC3)cc2)c2c(=O)[nH]ccc21	UniProt O60674	0.6 nM
COCCN1Cc2cc(Nc3nn([C@H]4CCCC[C@@H]4C#N)c4cc[nH]c(=O)c34)ccc2S1(=O)=O	UniProt O60674	0.55 nM
CCOC(=O)c1cnn(-c2ccc(Nc3nn([C@H]4CCCC[C@@H]4C#N)c4cc[nH]c(=O)c34)cc2C)c1	UniProt O60674	5.9 nM
N#C[C@H]1CCCC[C@@H]1n1nc(Nc2ccc3c(c2)CN(CC2CC2)S3(=O)=O)c2c(=O)[nH]ccc21	UniProt O60674	0.54 nM
N#C[C@H]1CCCC[C@@H]1n1nc(Nc2cccc(CNC(=O)c3ncccn3)c2)c2c(=O)[nH]ccc21	UniProt O60674	5.8 nM

###

Target: JAK2 (Homo sapiens (Human), UniProt O60674)
Sequence (O60674 849-1124): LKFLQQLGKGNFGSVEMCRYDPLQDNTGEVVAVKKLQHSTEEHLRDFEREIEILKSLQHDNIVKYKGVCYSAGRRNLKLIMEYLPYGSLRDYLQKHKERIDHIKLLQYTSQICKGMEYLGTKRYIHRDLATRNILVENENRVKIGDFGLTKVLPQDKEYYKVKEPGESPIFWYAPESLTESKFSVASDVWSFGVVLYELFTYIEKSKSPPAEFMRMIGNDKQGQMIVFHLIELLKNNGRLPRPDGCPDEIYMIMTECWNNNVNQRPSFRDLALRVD
Test: Jak biochemical HTRF assay, JAK2
Details: HTRF biochemical assay, recombinant GST-tagged catalytic domain; read-out: JAK2 IC50
pIC50: −log10 of the molar value.
Could you label it rule met if measured pIC50 is 9 or higher, and rule not met otherwise?

Compound	Classification
CC(C)C(c1ccc(Nc2nn([C@H]3CCCC[C@@H]3C#N)c3cc[nH]c(=O)c23)cc1)n1ccnn1 (single isomer, unassigned) [Example 15-23]	rule met
Cc1cc(Nc2nn([C@H]3CCCC[C@@H]3C#N)c3cc[nH]c(=O)c23)ccc1C(=O)N(C)C	rule met
N#C[C@@H]1CCCC[C@H]1n1nc(Nc2ccnc(F)c2)c2c(=O)[nH]ccc21	rule not met
CC1(N2Cc3cc(Nc4nn([C@H]5CCCC[C@@H]5C#N)c5cc[nH]c(=O)c45)ccc3S2(=O)=O)CCOCC1	rule met
CN(C(C)(C)C)S(=O)(=O)c1ccc(Nc2nn([C@@H]3CCCCC[C@H]3C#N)c3cc[nH]c(=O)c23)cc1 (single isomer, unassigned)	rule met
Cc1cc(Nc2nn([C@H]3CCCC[C@@H]3C#N)c3cc[nH]c(=O)c23)ccc1C(=O)N1CCCC1	rule met
CC(C)S(=N)(=O)c1ccc(Nc2nn(C3CCC[C@@H]3C#N)c3cc[nH]c(=O)c23)cc1 (single isomer, unassigned) [Example 3-108]	rule met
N#C[C@H]1CCCC[C@@H]1n1nc(Nc2ccc(C3(C(F)(F)F)CC3)cc2)c2c(=O)[nH]ccc21	rule not met
CC1c2ccc(Nc3nn([C@H]4CCCC[C@@H]4C#N)c4cc[nH]c(=O)c34)cc2CN1C(=O)OC(C)(C)C (some centres unmarked)	rule not met
CS(=O)(=O)c1ccc(Nc2nn([C@H]3CCCC[C@@H]3C#N)c3cc[nH]c(=O)c23)cc1CN	rule not met
